meta.source: PubChem BioAssay AID1259407

System: CCRIS mutagenicity, Ames/micronucleus/aberration tests
Assay: CCRIS mutagenicity studies
Conditions: Test System: AMES SALMONELLA TYPHIMURIUM; Strain/Indicator: TA100; Metabolic Activation: RAT, LIVER, S-9, KANECHLOR 500; Method: PREINCUBATION
Activity calls are given as the source filed them. How the calls were made is not given here.
Labels: 1.0 = active, 0.0 = inactive

Structure | Group
CCc1ccccc1[N+](=O)[O-] | 0.0
Nc1c([N+](=O)[O-])cccc1[N+](=O)[O-] | 1.0
CC(=O)Nc1cnc2ccccc2c1 | 0.0
Cc1cc([N+](=O)[O-])ccc1N | 0.0
OCCCCCl | 1.0
O=[N+]([O-])c1ccccc1S(=O)(=O)O | 0.0
OC[C@H](O)CCl | 0.0
Nc1c(Cl)cc([N+](=O)[O-])cc1Cl | 0.0
O=[N+]([O-])c1cccc(O)c1 | 1.0
O=[N+]([O-])c1ccc(S(=O)(=O)O)cc1 | 0.0
O=[N+]([O-])c1cc(Cl)ccc1Cl | 1.0

###

Tested on: CCRIS mutagenicity, Ames/micronucleus/aberration tests
Assay: CCRIS mutagenicity studies
Conditions: Test System: E. coli; Strain/Indicator: WP2uvrA/pKM101; Metabolic Activation: None; Method: Preincubation
Activity calls are given as the source filed them. The rule behind the calls is not given here.
Labels: active, inactive

Molecule | Target of assay | Group
CC(=O)[O-].CC(=O)[O-].O.O.O.O.[Co+2] | CCRIS mutagenicity, Ames/micronucleus/aberration tests | active
CCOC(=O)CC(=O)OCC | CCRIS mutagenicity, Ames/micronucleus/aberration tests | inactive
CC(C)(C)c1ccc(C(=O)O)cc1 | CCRIS mutagenicity, Ames/micronucleus/aberration tests | inactive
O=C1NC(=O)c2ccccc21 | CCRIS mutagenicity, Ames/micronucleus/aberration tests | inactive
ClC(Cl)(Cl)c1nc(-c2ccc3c(c2)OCO3)nc(C(Cl)(Cl)Cl)n1 | CCRIS mutagenicity, Ames/micronucleus/aberration tests | inactive
Cc1cc(S(=O)(=O)O)c(N)cc1Cl | CCRIS mutagenicity, Ames/micronucleus/aberration tests | inactive
CC12C=CC(C1)C1C(=O)OC(=O)C12 (configuration not stated) | CCRIS mutagenicity, Ames/micronucleus/aberration tests | inactive

###

Tested on: CCRIS mutagenicity, Ames/micronucleus/aberration tests
Assay: CCRIS mutagenicity studies
Settings: Test System: AMES SALMONELLA TYPHIMURIUM; Strain/Indicator: TA98; Metabolic Activation: RAT, LIVER, S-9, PCB; Method: PREINCUBATION
The source made the active and inactive calls. How the calls were made is not given here.
Reported property: mutagenic call

Structure | Reported property | Result
C1CNCCN1 | mutagenic call | inactive; negative
COc1nncc2ncccc12 | mutagenic call | inactive; negative
COc1ccc2cc([C@H](C)C(=O)O)ccc2c1 | mutagenic call | inactive; negative
C[C@H](CCC(=O)O)[C@H]1CC[C@H]2[C@@H]3CC[C@@H]4C[C@H](O)CC[C@]4(C)[C@H]3CC(=O)[C@]12C | mutagenic call | inactive; negative
CN1CCN(C)CC1 | mutagenic call | inactive; negative
C[C@H](CCC(=O)O)[C@H]1CC[C@H]2[C@@H]3CC[C@@H]4CC(=O)CC[C@]4(C)[C@H]3C[C@H](O)[C@]12C | mutagenic call | inactive; negative
CNc1ccc2nc(C)cnc2c1C | mutagenic call | active; positive
O=C(O)c1ccccc1O | mutagenic call | inactive; negative
Cc1cc([N+](=O)[O-])ccc1N | mutagenic call | inactive; negative
Nc1ccc(N=Nc2ccccc2)cc1 | mutagenic call | active; positive
Nc1ccc(Cc2ccc(N)c(C(=O)O)c2)cc1C(=O)O | mutagenic call | inactive; negative
CC(=O)Nc1ccccc1 | mutagenic call | inactive; negative

###

System: CCRIS mutagenicity, Ames/micronucleus/aberration tests
Test: CCRIS mutagenicity studies
Details: Test System: AMES SALMONELLA TYPHIMURIUM; Strain/Indicator: TA1537; Metabolic Activation: NONE; Method: PREINCUBATION
Activity calls are given as the source filed them. How the calls were made is not given here.
Outcomes: active, inactive

Structure | Group
CC(=O)/C=C/c1ccco1 | inactive
O=C1C=CC(=O)c2c(O)ccc(O)c21 | inactive
CC[C@H]1CN2CCc3cc(OC)c(OC)cc3[C@@H]2C[C@@H]1C[C@H]1NCCc2cc(OC)c(OC)cc21 | inactive
C[n+]1c2ccccc2c(N)c2ccccc21 | active
Cc1cc(-c2ccc(N/N=C3\C(=O)c4c(O)cc(S(=O)(=O)O)cc4C=C3S(=O)(=O)O)c(C)c2)ccc1N/N=C1\C(=O)c2c(O)cc(S(=O)(=O)O)cc2C=C1S(=O)(=O)O | inactive

###

System: CCRIS mutagenicity, Ames/micronucleus/aberration tests
Assay: CCRIS mutagenicity studies
Conditions: Test System: AMES SALMONELLA TYPHIMURIUM; Strain/Indicator: TA1537; Metabolic Activation: NONE; Method: STANDARD PLATE
The source made the active and inactive calls. The rule behind the calls is not given here.
Reported property: mutagenic call

Molecule | Reported property | Result
C[C@]12CC[C@@H](OC(=O)/C=C/c3cccc(N(CCCl)CCCl)c3)C[C@@H]1CC[C@@H]1[C@@H]2CC[C@]2(C)NC(=O)CC[C@@H]12 | mutagenic call | inactive; negative
Cc1cc(S(=O)(=O)O)ccc1N | mutagenic call | inactive; negative
C=C(C)C(=O)OCCCCC | mutagenic call | inactive; negative
O=c1[nH]c(=O)n([C@H]2C[C@H](O)[C@@H](CO)O2)cc1/C=C/Br | mutagenic call | inactive; negative
Cc1ccc(N=Nc2ccc(N(CCO)CCO)cc2)cc1 | mutagenic call | inactive; negative
CC(=O)N(CC(O)CN(C(C)=O)c1c(I)c(C(=O)NCC(O)CO)c(I)c(C(=O)NCC(O)CO)c1I)c1c(I)c(C(=O)NCC(O)CO)c(I)c(C(=O)NCC(O)CO)c1I (stereo unspecified) | mutagenic call | inactive; negative
O=S(=O)(Oc1ccc(Cl)c(Cl)c1)c1cccc2cccnc12 | mutagenic call | inactive; negative
C=CC(=O)OCCCCCC | mutagenic call | inactive; negative
CC(=O)Oc1ccccc1C(=O)Oc1ccccc1C(=O)O | mutagenic call | inactive; negative
CCC1(CC(=O)O)OCCc2c1[nH]c1c(C(C)O)cccc21 (stereo unspecified) | mutagenic call | inactive; negative
Cc1ccc(N)cc1O | mutagenic call | inactive; negative

###

System: CCRIS mutagenicity, Ames/micronucleus/aberration tests
Assay: CCRIS mutagenicity studies
Conditions: Test System: AMES SALMONELLA TYPHIMURIUM; Strain/Indicator: TA1538; Metabolic Activation: HAMSTER, LIVER, S-9, AROCLOR 1254; Method: STANDARD PLATE
Calls of active or inactive are those of the source. No rule for the calls is given here.
Outcome codes: class 1 (active), class 0 (inactive)

Structure | Target of assay | Group
COc1ccccc1/C=C/C=O | CCRIS mutagenicity, Ames/micronucleus/aberration tests | class 0
c1ccc2nccnc2c1 | CCRIS mutagenicity, Ames/micronucleus/aberration tests | class 0
NC(=Nc1ccccc1)Nc1ccccc1 | CCRIS mutagenicity, Ames/micronucleus/aberration tests | class 0
CCN(Cc1cccc(S(=O)(=O)O)c1)c1ccc(C(=C2C=CC(=[N+](CC)Cc3cccc(S(=O)(=O)[O-])c3)C=C2)c2ccc(S(=O)(=O)O)cc2)cc1 | CCRIS mutagenicity, Ames/micronucleus/aberration tests | class 1
COc1cc(CNC(=O)CCCC/C=C/C(C)C)ccc1O | CCRIS mutagenicity, Ames/micronucleus/aberration tests | class 0
Oc1ccc2ccccc2c1N=Nc1ccccc1 | CCRIS mutagenicity, Ames/micronucleus/aberration tests | class 1

###

Tested on: CCRIS mutagenicity, Ames/micronucleus/aberration tests
Assay: CCRIS mutagenicity studies
Settings: Test System: AMES SALMONELLA TYPHIMURIUM; Strain/Indicator: TA98; Metabolic Activation: HAMSTER, LIVER, S-9, AROCLOR 1254 (30%); Method: PREINCUBATION
Calls of active or inactive are those of the source. No rule for the calls is given here.
Possible outcomes: active, inactive

Compound | Group
Oc1ccc(Cl)cc1Cc1cc(Cl)ccc1O | inactive
C=CCNC(N)=O | inactive
CCCCC(C=O)CC (stereo unspecified) | inactive
CC(Cl)Cl | inactive
FC(F)(F)c1cccc(Cl)c1 | inactive
Nc1c(Cl)cc([N+](=O)[O-])cc1Cl | active
OC[P+](CO)(CO)CO | inactive
CCC(C)COC(=O)/C=C/c1ccc(N=Cc2ccc(OC)cc2)cc1 (stereo unspecified) | inactive
Oc1cc(Cl)c(Cl)c(Cl)c1 | inactive
CCCCOCCCC | inactive
Oc1cccc(Nc2ccccc2)c1 | inactive
Nc1ccc(N=Nc2ccccc2)cc1 | active
CNc1ccccc1 | inactive
Cc1ccc(Cl)cc1 | inactive
OCC(CO)(CBr)CBr | inactive
O=Nc1ccc(O)cc1 | active
Cc1ccc(N)cc1 | inactive
C=CC(C)C#N (stereo unspecified) | inactive
CCCCC(CC)CNCC(CC)CCCC (stereo unspecified) | inactive
COC(=O)NC(=S)Nc1ccccc1NC(=S)NC(=O)OC | active
CCN(C(=O)N(CC)c1ccccc1)c1ccccc1 | inactive
Oc1cccc2cccnc12 | inactive
O=[N+]([O-])c1ccc2c(c1)Cc1cccc([N+](=O)[O-])c1-2 | active
CC(C)[N+](C)(CCOC(=O)C1c2ccccc2Oc2ccccc21)C(C)C | inactive
Cc1cccc(C#N)c1 | inactive
N#CCc1ccccc1 | inactive
